Experiment: yeast display, Sf9 membrane polyspecificity reagent, FACS + sequencing; frameworks hold sequencing errors

- Sequence Data: "QVQLVESGGGLVQAGGSLRLSCAASGSIFPHYAMGWYRQAPGKERELVAAISSGTSTNYADSVKGRFTISRDNAKNTVYLQMNSLKPEDTAVYYCAADIGVYGERREEEFDYWGQGTQVTVSS"
  polyreactivity (PSR sort gate): "low polyreactivity"
- Sequence Data: "QVQLVESGGGLVQAGGSLRLSCAASGRILPLYAMGWYRQAPGKDRELVALIDSGGSTNYADSVKGRFTISRDNAKNTVYLQMNSLKPEDTAVYYCAAVVTAQAYAYFTYGYDYWGQGTQVTVSS"
  polyreactivity (PSR sort gate): "low polyreactivity"
- Sequence Data: "QVQLVESGGGLVQAGGSLRLSCAASGGILVFYAMGWYRQAPGKERELVAAINVSGGSTYYADSVKGRFTISRDNAKNTVYLQMNSLKPEDTAVYYCAALGPYLDYGVQYGYWGQGTQVTVSS"
  polyreactivity (PSR sort gate): "low polyreactivity"
- Sequence Data: "QVQLEDSGGGLVQAGGSLRLSCAASGSIFRRNFMGWNRQAPGKERELVAAISWSGDRTYYADSVKGRFTISRDNAKNTVYLQMNSLKPEDTAVYYCNAVYWPYRYDYWGQGTQVTVSS"
  polyreactivity (PSR sort gate): "high polyreactivity"
- Sequence Data: "QVQLVESGGGLVQAGGSLRLSCAASGRTLRKYAMGWYRQAPGKERELVAGFTGSAGSTYYADSVKGRFTISRDNAKNTVYLQMNSLKPEDTAVYYCAKSGLRYGFDYWGQGTQVTVSS"
  polyreactivity (PSR sort gate): "high polyreactivity"
- Sequence Data: "QVQLVESGGGLVQAGGSLRLICAASGSTFRYYAMVLYRQAPGKERELVAAISGTGSTYYADSVKGRFTISRDNAKNTVYLQMNSLKPEDTAVYYCAAYPRASQRYNYWGQGTQVTVSS"
  polyreactivity (PSR sort gate): "high polyreactivity"
- Sequence Data: "QVQLVESGGGLVQAGGSLRLSCAASGSIFQQYAMGWYRQAPGKERELVAAITYSGDGTYYADSVKGRFTISRDNAKNTVYLQMNSLKPEDTAVYYCAAYPRDPYKEYDYWGQGNQVTVSS"
  polyreactivity (PSR sort gate): "low polyreactivity"
- Sequence Data: "QVQLVESGGGLVQAGGSLRLSCAASGRIFTAYYAMGWYRQEPGKESELVASISSSGTSTYADSVKGRFTISRDNAKNSVYLQMISLKPEDTAVYYCATRKLRTRRYDYGYWGQGTQVTVSS"
  polyreactivity (PSR sort gate): "low polyreactivity"
- Sequence Data: "QVQLVESWGGLVQEGGSLRVSCAASGSIFSHYAMGRYRQAPGKEREFVAAIPRGVSTYYADSVKGRFTISRDNAKNTVYLLMNSLKPEYTGVYSCNKTYVRGVHGVYLPITSYDYWGQGTQVTVSS"
  polyreactivity (PSR sort gate): "low polyreactivity"
- Sequence Data: "QVQLVESGGGLVQAGGSLRLSCAASGSTFAKYAMGWYRQAPGKERELVASIRLSGGSTYYADSVKGRFTISRDNAKNTVYLQMNSLKPEDTALYYCHKQFATFFYGFDYYYWGQGTQVTVSS"
  polyreactivity (PSR sort gate): "low polyreactivity"
- Sequence Data: "QVQIVESGGRLVQAGGSLRLSCAASGNIFRYNAMGWYRQAPGKERELVAAITLSGGDTYYADSVKGRFTISRDNAKNIVYLQMNSLKPEDTAVYYCAKDPRSDYTDGMNYWGQGTQLTVSS"
  polyreactivity (PSR sort gate): "low polyreactivity"
- Sequence Data: "QVQLVESGGCLVQAGRSLRLSCAASGIIFGGNVMGWYRQAAGKERQLVAAINWSVVTTYYADSVKGRFTISRDNAKNTVYLQMNSLKAADTAVYYCNKDYVTAPYFYFIDTMDYWGQGTQGTVSS"
  polyreactivity (PSR sort gate): "low polyreactivity"
- Sequence Data: "QVQLVESGGGLVQAGGSLRLSCAASGSISYSNAMGWYRQAPGKERELVAAISWSTGRTYYADSVKGRFTISRDNAKNTVYLQMNSLKPEDTAVYYCATRLYPGGPYDYWGQGTQVTVSS"
  polyreactivity (PSR sort gate): "high polyreactivity"
- Sequence Data: "QVQLVESGGGLVQAGGSLRLSSAASGYIFTPYAMGWYRQAPGKERELVAAISSSTVRTFYADSVKGRFTISRDNAKNTVYLQMNSLKPEDTAVYYCAARGYWGQGTQVTVSS"
  polyreactivity (PSR sort gate): "high polyreactivity"
- Sequence Data: "QVQLVESGGGLVQAGGRLRLSSAASGFIFYYYAMGWYREAPGKERELVAAISTDGGSTFYADSVKGRFTISRDNAKNTVYLQMNSLKPEDTAVYYCNAPYYGWGYWPLEYIRYEYWGQGTQVTVSS"
  polyreactivity (PSR sort gate): "low polyreactivity"
- Sequence Data: "QVQLVESGGGLVQAGVSLRLSCAASGGTFPKYTMGWYRQAPGKERELVAAITSRGTRTYYADSVKARFTISRDNAKNTVYLQMNSLKTEDTAVYYCAAYFDRHRYDYWGQGTQVTVSS"
  polyreactivity (PSR sort gate): "high polyreactivity"
- Sequence Data: "QVQLVESGGGLVQAGGSLRLSCAASGSTFFLYAMGCYRQAPGNERELVAAISWRGASTYYADSVNGSFTISRDNAKNSVYLQMNSLKPDDTAVYYCAADLLPLYDDWGQGTQVTVSS"
  polyreactivity (PSR sort gate): "high polyreactivity"
- Sequence Data: "QVQLVESGGGLVQAGGSLRLSCAASGFTFYPYTMGWYRQAPGKEREFVAAISWNCGSTYYADSVKGRFTISCDNAKNTVYLQMNSLKPEDTAVYYCAKRSYRSSARELDYWGQGTQVTVSS"
  polyreactivity (PSR sort gate): "low polyreactivity"
- Sequence Data: "QVHLVESGGGLVQAGGSLRLICAASGSIFRWNAMGWYRQAPGKEREFVATISSGRNTKYADSVKGRFTISRDNAKNTVYLQMTSLKPQDTAVNDCAAAVKRALDYWGQGTQVTVSS"
  polyreactivity (PSR sort gate): "high polyreactivity"
- Sequence Data: "QVQLVESGGGLVQAGGSLRLSCAASGRIFPEYAMGWYRQAPGKERELVAAITSGGNYADSVKGRFTISRDNAKNTVYLQMNSLKPEDTAVYYCAAVYLWYGSWPLHFAAYDYWGQGTQVTVSS"
  polyreactivity (PSR sort gate): "low polyreactivity"
- Sequence Data: "QVQLVESGGGLVQAGGSLRISCAASGLIFNFNALGWYRQAPGKERELVAAITRSGSTDYADSVKGRFTISRDNAKNTVYLQLNSLKPEDTAVYYCAAEFYLRRFKVTKRYWFDYWGQGTQVTVSS"
  polyreactivity (PSR sort gate): "low polyreactivity"

* * *

Assay: yeast display, Sf9 membrane polyspecificity reagent, FACS + sequencing; frameworks hold sequencing errors
Experimental Endpoint: polyreactivity (PSR sort gate)

- Sequence Data: "QVQLVESGGGIVQAGGSLRLSCAASGFIIRPYAMGWYRQAPGKERELVAAITGGGSTYYADSVKGRFTISRDNAKNTVYLQMNSLKPEDTAVYYCNADRRRRSGGFAGWHFQRNVYWGQGTQVTLSS"
  Test Result: "low polyreactivity"
- Sequence Data: "QVQLVQSAVGLVQAGGSLRLICAASGITFLDNAMGWYRQAPGTERELVAAITSDGNPYYADCVKGRFTISRDNAKNTVYLQMNSLKPEDTAVYYCAVEVSDYYTYVSYDYCGQGTQVTVSS"
  Test Result: "low polyreactivity"
- Sequence Data: "QVQLVESGGGLVQAGGSLRLSCAASGRILDINTMRGYRHPPGKERELVAAITWSGVSTYYADSVKGRFTISRDNAKNTVYLQMNSLKPEDTAVYYCAARPYYTWRYLPTNSGDYWGQGTQETVSS"
  Test Result: "low polyreactivity"
- Sequence Data: "QVQLVESGGGLVQAAGSLRLSFAASGSIFGRYPMGWYRQAPGKERELVAAISTGDSTYYADSVKGRFTISRDNAKNTVYLQMISLKPEDTAVYYCNRRGRRGYDYWGQGTQVTVSS"
  Test Result: "high polyreactivity"
- Sequence Data: "QVQLVESGGGLVQAGGSLRLSCAASGRTFVDYAMGWYRQAPGKERELVAAINTGGRTKYADSVKGRFTISRDNAKITVYLQMNSLKPEDTAVYYCAARKQYGGVRGDYWGQGTQVTVSS"
  Test Result: "high polyreactivity"

* * *

Assay: yeast display, Sf9 membrane polyspecificity reagent, FACS + sequencing; frameworks hold sequencing errors

- Sequence Data: "QVQLVESGGGLVQAGGSLRLSCAAAGLTFEWYTMGWYRQAPGKERELVADISGDGSTYYADSVKGRFTISRDNAKNTVYLQMNSLKPEDTAVYYCAASFWGFAMGYWGQGTQVTVSS"
  polyreactivity (PSR sort gate): "high polyreactivity"
- Sequence Data: "QVQLVESGAGIVQAGGSLRLSCAASGNSYGYAMGWYRQAPGKERELVAAITSGASDTYYADSVKGRFTISRDNAKKTVYLQMNSLKPEDTAVYYCAAVDYTNRYDPYDYWGQGTQVTVSS"
  polyreactivity (PSR sort gate): "low polyreactivity"
- Sequence Data: "QVQLVESGGGLVQAGGSLRLSCAASGFTFYYYAMGWYRQAPGKERELVATISRSGGSTYYADSVKGRFTISRDNAKNTVYLQMNSLKPEDTAVYYCAARSYKSPRDYDYWGQGTQVTVSS"
  polyreactivity (PSR sort gate): "high polyreactivity"
- Sequence Data: "QDQLVESGGGLVQAGGSLRLRCAASGRTFYMYAMGWYRQAPGKERELDAVISPSGGPTYYADSVKGRFTISRDNAKNPGSLQMNSMKPEDTAVFYCATDYAYSPYRYWTRYDYWGLGTQVTVSS"
  polyreactivity (PSR sort gate): "high polyreactivity"
- Sequence Data: "QVQLVESGGGLVQAGGSLRLSCAASGSIFYYYAMGWYRQAPGKERELVASITRGGSTYYADSVKGRFTISRDNAKNTVYLQMNSLKPEDTAVYYCNADLGAYVPFDYWGQGTQVTVSS"
  polyreactivity (PSR sort gate): "high polyreactivity"
- Sequence Data: "QVQLVESGGGLVQAGGSLRLSCAASGSIFGTNTMGWYRQAPGKEREFVAVITGSTTSTYYADSVKWRFTISRDNANNTVYLQMNSLIPEDTAVYYCADEPGSRSYGGDYWGQGTQVTVSS"
  polyreactivity (PSR sort gate): "high polyreactivity"
- Sequence Data: "QVQLVESGGGLVQAGGSLRLSCAASGRIFGRNAMGWYRQAPGKEREFVAAISRSGASTYYADSVKGRFTISRDNAKNTVYLQMNSLKPEDTAVYYCARTTRQSSAYTYSDEYDYWGQGTQVTVSS"
  polyreactivity (PSR sort gate): "high polyreactivity"
- Sequence Data: "QVQLVESGGGLVQAGRSLRLSCAASGSTFGSNAMGWYRLAPGKERELVAAITRRGGSTYYADSEKGRFTISRDNAKNTVYLQMNSLKPEDTAVYYCAAQIHPRRDYSAFDYWGQGTQVTVSS"
  polyreactivity (PSR sort gate): "low polyreactivity"
- Sequence Data: "QVQLVESGGGLVQAGGSLRLSCAASGSIFKYYAMGWYRQAPGKERELDAAISYSGGRTYYADSVKGRFTISRDNAKNTVYLQMNSLKPEDTAVYYCATDYYYRSAKFLGDYWGQGTQVTVSS"
  polyreactivity (PSR sort gate): "high polyreactivity"
- Sequence Data: "QVQLVESGGGLVQAGGSLRLSCAASGFIFAQNAMGWSRQAPGTERELVAAITSSGVSTYYADSVKGRFTISRDNAKNTVYLQMNSLKPEDTAVYYCNRTPRYTIRYGYWGQGTQVTVSS"
  polyreactivity (PSR sort gate): "high polyreactivity"
- Sequence Data: "QVQLVESGGGLVQAGGSLRISCAAYGTIFSDYAMGWYKQAPGKERELVAAISSGGNTNYADSVKGRFTISRDNAKNTVYLQMNSLKPEDTAVYYCAAVYNTTYTLLPEYSDVKYYYWGQGTQVTVSS"
  polyreactivity (PSR sort gate): "low polyreactivity"
- Sequence Data: "HVQLGESGGGLVQAGGSLRLSCAASGRNFERNVMGWYRPATGKERELVAGIRSDGDRTYYADSVKGRFTISRDNSKNTVYLQLKSLKPEDTAVYYCAVVWYDKGRQTRYNYWGQGTQVTVSS"
  polyreactivity (PSR sort gate): "high polyreactivity"
- Sequence Data: "QVQLVESGGGLVQAGGSLRLSCAASGSTLYAYAVGWYRQAPGKERELVAAIRTGGSTYYADSVKGRFTISRDNAKNTVYLQMNRLIPEDTAVYYCAADHGYQYGYWGQGTQVTVSS"
  polyreactivity (PSR sort gate): "low polyreactivity"
- Sequence Data: "QVQLVESGGGLVQAGGSLRLSCAASGFTLGFYAMGWYIQAPGKERELVAAINWRGGSTYYADSVKGRFTISRDNAKNTVYLQMNSLKPEDTAVYYCNAGFNTGGYGYWGQGTQVTVSS"
  polyreactivity (PSR sort gate): "high polyreactivity"
- Sequence Data: "QVQLVESGGCIVQAGVSLRLSCSSSGRTFGYNAMGLYRNAPGKERELVAAINWSGASKYYADSVKGRFTISRDNAKNTVYLQMNSLKPEDTAVYYCAADYSYIYGFDYWGQGTQVTVSS"
  polyreactivity (PSR sort gate): "low polyreactivity"
- Sequence Data: "QVQLVESGGGLVQAGGSLRLSCAASGRIFSYYAMGWYRQAPGTERELVAAISWSGSRTNYADSVKGRFTISRDNAKNTVYLQMKSLKPEDTAVYYCAAEDWSTQGSATVQYDYWGQGTEVTVSS"
  polyreactivity (PSR sort gate): "high polyreactivity"
- Sequence Data: "QVQLVESGGRVDQAGGSLRLRCAASGRTFPVYAMGWYRQAPGKERELVAAITRCDDSTYYADSVKGRFTISRDNAKNTVYFEMNSLKPEDTAVYYCARSSRESYEYDYWGQGTQVTVSS"
  polyreactivity (PSR sort gate): "low polyreactivity"
- Sequence Data: "QVQLVESGGGLVQAGGSLRVSCAASGFIFLNNAMGWYRQAPGKERELVAAITWSGGSTYYADSVKGRFTISRDNAKNTVYLQMKSLKPEDTAVYYCAADGWLYYGVGYWGQGTQVTVSS"
  polyreactivity (PSR sort gate): "low polyreactivity"
- Sequence Data: "QVPLVESAGGLVQAGGSLRLSCAASGITLYVYAKGWYRQAPGKERELVAAINSGGNTYYADSVKGRFTISRDNAKNTVYLQMNSLKPADTAVYYCAAVYPRQVSHVWRDDYWGQGTQVTVSS"
  polyreactivity (PSR sort gate): "high polyreactivity"
- Sequence Data: "QVQLLESGGGLVQAGGSLRLSCAASGLIFERYAMGWYRQAPGKERELVAAITRRGGSTYDADSVKGRFTISRDNAKNTVYFQMNSLKPEDTAVNYCAAGRPQDTEFDYWGLGTQVTVSS"
  polyreactivity (PSR sort gate): "high polyreactivity"
- Sequence Data: "QVQLVESGGGLVQAGGSLRLSCAASGSIFWQYAMGWYRQAPGKERELVAAINWSGDTTYYADSVKGRFTISRDNAKNTVYLQMNSLKPEDTAVYFCAAVGGVSYGGSPKTHAGEDYWGQGTQVTVSS"
  polyreactivity (PSR sort gate): "low polyreactivity"

From: the nanobody polyreactivity screen of Harvey et al. (2022)
